System: Chordin-like protein 2 (CHRDL2)
experiment summary: compounds binding chordin-like 2 – biochemical, small-molecule microarray, 635 nm fluorescence, primary screen (AID 1126);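 note: printed compound slides probed with Chrdl2 protein at 4 µg/mL for 1 h at 4 C; score merges 667 nm emission intensity with signal to noise over three replicate slides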
particulars: fluorescence 635 nm, higher = more signal
Where composite z-score equals or exceeds -0.1, the correct label is YES; where it does not, the label is NO.

Some solved cases for reference:
INSERT INTO results (compound, group_label) VALUES
  ('COc1cc(C(O)C2C=CC3C(=O)N(C)C(=O)C3N2NC(=O)OC(C)(C)C)cc(OC)c1OC (configuration not stated)', 'NO'),
  ('O=C1c2ccccc2[C@](Cc2ccccc2I)(C(=O)NCC(F)(F)F)[C@H](c2ccc(CO)cc2)N1Cc1ccccc1', 'NO');

Consider the record given below.
Hi, just wondering whether `COc1ccc(C#Cc2ccc3c(c2)[C@]2(C(=O)N3)[C@H](C(=O)O)[C@H]3C(=O)O[C@H](c4ccccc4)[C@H](c4ccccc4)N3[C@@H]2c2ccc(OCCO)cc2)cc1` shows composite z-score of -0.1 or higher.
YES

----------
experiment summary: binders of probe aHhip on microarray, primary screen, stem cell growth factor project, biochemical, small-molecule microarray, fluorescence 635/667 (AID 1087);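 note: score merges spot fluorescence at 667nm with spot signal to noise ratio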
particulars: higher = more signal
readout kind: composite z-score
Give the figure only, with no unit attached.

INSERT INTO assay_data (compound, readout_kind, numeric_readout) VALUES
  ('C=C(COC)C(=O)CC[C@H](OC(=O)c1ccccc1-c1ccccc1C(=O)O)c1ccc(CO)o1', 'composite z-score', -0.0618),
  ('COC(=O)c1ccc(OC)c(/C=C\CC(CCc2ccccc2)OC(C)=O)c1 (centres undefined)', 'composite z-score', 0.101),
  ('CN(C)CCCCCCNC(=O)[C@@H]1C[C@@H]2C(=O)NCC(=O)N2[C@@H]1c1ccc(O)cc1', 'composite z-score', 0.107);

Next up:
Note down composite z-score recorded for N#Cc1ccc(NN2C(C(O)c3ccccc3)C=CC3C(=O)N(c4ccccc4)C(=O)C32)cc1 (centres undefined)
-0.151

----------
experimental system: Pro-neuregulin-1, membrane-bound isoform (Homo sapiens)
experiment summary: small molecules binding neuregulin-1 protein – biochemical, small-molecule microarray, fluorescence 635/667, psychiatric disease protein project, primary screen (AID 1075);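 note: score combines 667 nm spot fluorescence with signal to noise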
particulars: NRG1 binding, 635 nm fluorescence, higher = more signal
Where composite z-score equals or exceeds 1, the correct label is met; where it does not, the label is not met.

Some solved cases for reference:
INSERT INTO results (compound, experimental_system, group_label) VALUES
  ('O=C1OCCC=C[C@H]2OC34C=CCN(Cn5nnc6ccccc65)C(=O)[C@H]3N(CCCCCO)C(=O)[C@@H]4C12 (stereo partly specified)', 'Pro-neuregulin-1, membrane-bound isoform (Homo sapiens)', 'met'),
  ('CC(=O)NCCCC[C@@H]1NC(=O)[C@@H]2C[C@H](C(=O)NCCCC[N+](C)(C)C)[C@H](c3cccc(OCCO)c3)N2C1=O', 'Pro-neuregulin-1, membrane-bound isoform (Homo sapiens)', 'not met'),
  ('CCCCC(O)C1C=CC2C(=O)N(Cc3ccccc3)C(=O)C2N1n1cnnc1 (stereo unspecified)', 'Pro-neuregulin-1, membrane-bound isoform (Homo sapiens)', 'met'),
  ('CC(C)C(CO)N1C(=O)[C@@H]2[C@H]3C(=O)OCC=C[C@H]3OC23C=CCN(CCN2CCOCC2)C(=O)[C@@H]13 (stereo partly specified)', 'Pro-neuregulin-1, membrane-bound isoform (Homo sapiens)', 'not met');

Hi, just wondering whether `COc1ccc(C#Cc2ccc3c(c2)[C@]2(C(=O)N3)[C@H](C(=O)O)[C@H]3C(=O)O[C@H](c4ccccc4)[C@H](c4ccccc4)N3[C@@H]2c2ccc(OCCO)cc2)cc1` shows composite z-score of 1 or higher.
met

----------
experiment summary: blood-stage malaria parasite viability loss – strain 3D7, DAPI fluorescence, 100 nL, primary screen (AID 1184);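 note: parasites grown inside human red blood cells in medium with human serum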
particulars: P. falciparum 3D7 growth, 3 d, higher = more signal
readout kind: z-score
Give the figure only, with no unit attached.

Take a look at these entries with their results.
INSERT INTO results (compound, numeric_readout) VALUES
  ('O=C(CS)NCCCCCNC(=O)[C@@H]1C[C@@H]2C(=O)N3CCC[C@H]3C(=O)N2[C@@H]1c1ccc(O)cc1', 0.924),
  ('CC[C@@H]1[C@@H]2C3C(=O)N(CC)C(=O)C3CC(=O)[C@@H]2[C@H](c2ccc(C)cc2)N1S(=O)(=O)c1ccc(C)cc1 (stereo partly specified)', -0.226),
  ('COC(=O)c1ccc(OC)c(/C=C\CC(CCc2ccccc2)OC(C)=O)c1 (stereo unspecified)', 0.522);

Note down z-score recorded for `C[N+](C)(C)CCCC[C@@H]1NC(=O)[C@H]2C[C@@H](C(=O)NCCCCCCN)[C@@H](c3cccc(OCCO)c3)N2C1=O`
-0.997

Note down z-score recorded for `CCC[C@@H]1C[C@@]1(CCC)[C@@H](NC(=O)c1ccco1)c1ccc(Cl)cc1`
-1.21

Note down z-score recorded for `CCOC(=O)C[C@H]1[C@H](OC(=O)c2ccccc2-c2ccccc2)[C@@H](NC(=O)c2ccccc2)c2cc(OCCCO)ccc2N1C(=O)Cc1ccc(OC)cc1`
-0.375

----------
Test system: Human papillomavirus type 1a protein E7 (residues 44-93)
experiment summary: small molecules binding HPV E7 44-93 – biochemical, small-molecule microarray, residues 44-93, 635 nm fluorescence, primary screen (AID 1108);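 note: E7 fragment applied at 1 µg/mL in TBST for 1 h at 4 C; score combines spot fluorescence with its signal to noise ratio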
particulars: fluorescence 635 nm, higher = more signal
Where composite z-score equals or exceeds 1, the correct label is 1; where it does not, the label is 0.

Some solved cases for reference:
INSERT INTO assay_data (compound, group_label) VALUES
  ('[N-]=[N+]=Nc1ccccc1[C@H]1OC(c2ccc(OCCCO)cc2)=N[C@@]1(Cc1ccccc1)C(=O)NCc1ccccc1', 1),
  ('CN(C)C(=O)[C@@]1(CCC(=O)OC(C)(C)C)N=C(c2ccc(OCCCO)cc2)O[C@H]1c1ccccc1N=[N+]=[N-]', 1),
  ('CC(C)(C)N1CC=CC23O[C@@H]4C=CCCOC(=O)C4[C@H]2C(=O)N(CCCO)[C@@H]3C1=O (some centres not stated)', 0);

Hi, just wondering whether `C[N+](C)(C)CCCCCCNC(=O)[C@@H]1C[C@@H]2C(=O)NCC(=O)N2[C@@H]1c1ccc(O)cc1` shows composite z-score of 1 or higher.
1

Hi, just wondering whether `O=C(CS)NCCCCCNC(=O)[C@@H]1C[C@@H]2C(=O)N3CCC[C@H]3C(=O)N2[C@@H]1c1ccc(O)cc1` shows composite z-score of 1 or higher.
0

Hi, just wondering whether CN1C(=O)C2C=CC(C(O)c3cccc4ccccc34)N(NC(=O)OC(C)(C)C)C2C1=O (configuration not stated) shows composite z-score of 1 or higher.
1

----------
experimental system: Albumin (Bos taurus) (UniProt P02769)
Sequence (P02769 whole entry, looked up): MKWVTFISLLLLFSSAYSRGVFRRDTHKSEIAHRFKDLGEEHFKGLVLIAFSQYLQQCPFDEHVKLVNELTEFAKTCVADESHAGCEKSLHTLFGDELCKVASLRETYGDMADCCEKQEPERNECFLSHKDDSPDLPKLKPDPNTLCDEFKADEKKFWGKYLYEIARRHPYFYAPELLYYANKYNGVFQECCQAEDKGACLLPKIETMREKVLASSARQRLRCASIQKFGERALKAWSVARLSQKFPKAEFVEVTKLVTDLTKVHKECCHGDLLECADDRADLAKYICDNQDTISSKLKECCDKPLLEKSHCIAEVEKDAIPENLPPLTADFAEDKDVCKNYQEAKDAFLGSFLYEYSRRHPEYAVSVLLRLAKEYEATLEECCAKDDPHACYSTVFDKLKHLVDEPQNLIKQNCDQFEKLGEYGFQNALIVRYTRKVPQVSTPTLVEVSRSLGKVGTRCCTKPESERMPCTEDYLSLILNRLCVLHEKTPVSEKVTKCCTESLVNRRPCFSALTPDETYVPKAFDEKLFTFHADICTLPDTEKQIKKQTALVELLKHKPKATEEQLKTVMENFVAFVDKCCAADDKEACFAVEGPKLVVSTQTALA
experiment summary: compounds binding labelled BSA control protein – biochemical, small-molecule microarray, Alexa647 label, 635/667 nm fluorescence, artefact control for SMM control protein annotation, profiling panel (AID 1118);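 note: score merges 667 nm emission intensity and signal-to-noise per printed compound spot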
particulars: BSA-A647 binding, fluorescence 635 nm, higher = more signal
Where composite z-score equals or exceeds 0.6, the correct label is Condition met; where it does not, the label is Condition not met.

Hi, just wondering whether `[N-]=[N+]=NCc1ccccc1[C@H]1OC(c2ccc(OCCCO)cc2)=N[C@@]1(Cc1ccccc1N=[N+]=[N-])C(=O)NCCN1CCOCC1` shows composite z-score of 0.6 or higher.
Condition met

Hi, just wondering whether `C[N+](C)(C)CCCCCCNC(=O)[C@H]1C[C@H]2C(=O)N3CCC[C@H]3C(=O)N2[C@H]1c1cccc(OCCO)c1` shows composite z-score of 0.6 or higher.
Condition not met

Hi, just wondering whether C=CC[C@]1(C(=O)NCC(O)CO)N=C(c2ccc(OCCCO)cc2)O[C@H]1c1ccccc1N=[N+]=[N-] (some centres not stated) shows composite z-score of 0.6 or higher.
Condition met

Hi, just wondering whether O=C1OCCC=C[C@H]2OC34C=CCN(Cn5nnc6ccccc65)C(=O)[C@H]3N(CCCCCO)C(=O)[C@@H]4C12 (some centres not stated) shows composite z-score of 0.6 or higher.
Condition not met

Hi, just wondering whether `CCCC[C@@H](O)C1=C(COc2ccccc2)Cn2c(=O)n(-c3ccccc3)c(=O)n2[C@H]1CO` shows composite z-score of 0.6 or higher.
Condition not met

----------
Here the recorded z-score is given for each entry.
experiment summary: blockers of DNA damage checkpoint Chk1 activation – imaging, HeLa, hydroxyurea, phospho-Chk1 antibody, percent positive cells, primary screen (AID 1186)
particulars: hydroxyurea-induced phospho-Chk1 immunofluorescence imaging, higher = more signal
The source made the active and inactive calls. No rule for the calls is given here.

INSERT INTO measurements (compound, readout_kind, result) VALUES
  ('COC(=O)C(CC#Cc1ccc2c(c1)[C@]1(C(=O)N2)[C@H](c2ccccc2OCCO)N2[C@H](c3ccccc3)[C@H](c3ccccc3)OC(=O)[C@H]2[C@@H]1C(=O)Nc1nc2ccccc2s1)C(=O)OC', 'z-score', '-0.0918 (inactive)');

Note down z-score recorded for O=C1NC(=O)C2C1C=CC(C(O)CCc1ccccc1)N2Nc1ccccn1 (centres undefined)
-0.181 (inactive)

Note down z-score recorded for `[N-]=[N+]=NCc1ccccc1[C@H]1OC(c2ccc(OCCCO)cc2)=N[C@@]1(Cc1ccccc1N=[N+]=[N-])C(=O)N1CCCCC1`
-0.335 (inactive)

Note down z-score recorded for `COC(=O)[C@@]1(Cc2ccccc2)[C@H]2c3cc(C(=O)N(C)C)n(Cc4ccccn4)c3C[C@H]2CN1C(=O)c1ccccc1`
0.545 (inactive)
